The measurements presented in this section are drawn from ChEMBL document CHEMBL5543118.

- ASSAY DETAILS: Aqueous solubility of the compound in DMSO measured for 20 to 24 hrs
- Type: physicochemical
- CONDITION CONTEXT: time 20-24 hrs
VALUE TYPE: solubility

Task: Which measured solubility value corresponds to Cc1cc(S(=O)(=O)Nc2ccc(Cl)c3c(Cl)c[nH]c23)oc1C(=O)N1CCC(C(=O)N2CCN(CC3CCN(C(=O)C[C@@H]4N=C(c5ccc(Cl)cc5)c5c(sc(C)c5C)-n5c(C)nnc54)CC3)CC2)CC1 ?
Result: < 0.16 µM

----------
- ASSAY DETAILS: Lipophilicity, logD of the compound in octanol/water at pH 7.4 by shake flask method
- Assay type: physicochemical
VALUE TYPE: logD
Kindly provide the number alone.

Task: Could you tell me which logD is on file for CN(C)C(=O)c1ccc(S(=O)(=O)Nc2ccc(Cl)c3c(Cl)c[nH]c23)o1 ?
Result: 2.3

Task: Return reported logD; argument: N#Cc1cccc(S(=O)(=O)Nc2ccc(Cl)c3c(C#N)c[nH]c23)c1
Result: 2.4

Task: I'd like to know its logD. The molecule in question is Cc1cc(S(=O)(=O)Nc2ccc(Cl)c3c(Cl)c[nH]c23)oc1C(=O)N1CCN(C)CC1
Result: 2.2

Task: Fill blank: measured logD of the molecule Cc1sc(S(=O)(=O)Nc2ccc(Cl)c3c(Cl)c[nH]c23)cc1C(=O)N(C)C is ____.
Result: 3

Task: What value of logD has been recorded for this entry: Cc1sc(S(=O)(=O)Nc2ccc(Cl)c3c(Cl)c[nH]c23)nc1C(=O)N(C)C
Result: 1.5

Task: For CNC(=O)C1CCN(C(=O)c2oc(S(=O)(=O)Nc3ccc(Cl)c4c(Cl)c[nH]c34)cc2C)CC1 , what is its reported logD?
Result: 2.1

Task: I'd like to know its logD. The molecule in question is Cc1cc(S(=O)(=O)Nc2ccc(Cl)c3c(Cl)c[nH]c23)oc1C(=O)N(C)C
Result: 2.7

Task: What value of measured logD is listed for N#Cc1cccc(S(=O)(=O)Nc2ccc(Cl)c3c(Cl)c[nH]c23)c1 ?
Result: 4

Task: Can you look up the measured logD of CNC(=O)C1CN(C(=O)c2oc(S(=O)(=O)Nc3ccc(Cl)c4c(Cl)c[nH]c34)cc2C)C1 for me?
Result: 1.9

Task: Report logD for CNC(=O)c1oc(S(=O)(=O)Nc2ccc(Cl)c3c(Cl)c[nH]c23)cc1C please.
Result: 2.9

Task: # input molecule: N#Cc1cccc(S(=O)(=O)Nc2cc(Cl)cc3c(Cl)c[nH]c23)c1 ; wanted: its logD
Result: 3.8

Task: Looking for the measured logD of Cc1cc(S(=O)(=O)Nc2ccc(Cl)c3c(Cl)c[nH]c23)oc1C(=O)N1CCCCC1 , can you help?
Result: 3.6

Task: Item N#Cc1cccc(S(=O)(=O)Nc2ccc(F)c3c(C#N)c[nH]c23)c1 has what recorded logD?
Result: 2

Task: Entry CN(C)C(=O)c1oc(S(=O)(=O)Nc2ccc(Cl)c3c(Cl)c[nH]c23)cc1Cl : reported logD = ?
Result: 2.3

Task: Item N#Cc1cccc(S(=O)(=O)Nc2ccc(C#N)c3c(Cl)c[nH]c23)c1 has what recorded logD?
Result: 1.7

Task: I'd like to know its logD. The molecule in question is Cc1ccc(NS(=O)(=O)c2cccc(C#N)c2)c2[nH]cc(C#N)c12
Result: 2.6

Task: Record request: logD value, item COCCNC(=O)c1oc(S(=O)(=O)Nc2ccc(Cl)c3c(Cl)c[nH]c23)cc1C
Result: 2.8
